B1: GAGE1 (parent)
chain: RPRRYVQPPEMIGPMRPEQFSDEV

- Variants of: B1
- TEST DESCRIPTION: protein stability index of a GFP-peptide fusion (GPS, HEK-293T) (PSI 1-6); higher = more stable;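 also: lentivirally expressed fusions sorted by FACS into six bins by GFP to DsRed ratio, PSI derived from sequencing read proportions per bin multiplied by bin number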
- CONDITION: c terminus: a fixed tail appended
ENDPOINT NAME: protein stability index
Answer as a number with no unit attached.

Look over these answered cases.
| VARIANT ID | ENDPOINT NAME | ASSAY VALUE |
| --- | --- | --- |
| P2M | protein stability index | 3.24 |
| D22R | protein stability index | 3.5 |
| P8F | protein stability index | 3.41 |
| V6S | protein stability index | 4.17 |
| R16D | protein stability index | 3.84 |

Query string: Fill in the blank: the reported protein stability index of "P9I" is ____.
Result string: 3.57

Query string: Fill in the blank: the reported protein stability index of "V6I" is ____.
Result string: 3.94

Query string: Fill in the blank: the reported protein stability index of "P17Y" is ____.
Result string: 3.36

Query string: Fill in the blank: the reported protein stability index of "P14L" is ____.
Result string: 3.48

Query string: Fill in the blank: the reported protein stability index of "E23A" is ____.
Result string: 3.59

Query string: Fill in the blank: the reported protein stability index of "P8A" is ____.
Result string: 3.71
